Attribution: paper PMC7619385

Target: LmxCLK1 (Leishmania mexicana)
Sequence (E9AMP2 1-422): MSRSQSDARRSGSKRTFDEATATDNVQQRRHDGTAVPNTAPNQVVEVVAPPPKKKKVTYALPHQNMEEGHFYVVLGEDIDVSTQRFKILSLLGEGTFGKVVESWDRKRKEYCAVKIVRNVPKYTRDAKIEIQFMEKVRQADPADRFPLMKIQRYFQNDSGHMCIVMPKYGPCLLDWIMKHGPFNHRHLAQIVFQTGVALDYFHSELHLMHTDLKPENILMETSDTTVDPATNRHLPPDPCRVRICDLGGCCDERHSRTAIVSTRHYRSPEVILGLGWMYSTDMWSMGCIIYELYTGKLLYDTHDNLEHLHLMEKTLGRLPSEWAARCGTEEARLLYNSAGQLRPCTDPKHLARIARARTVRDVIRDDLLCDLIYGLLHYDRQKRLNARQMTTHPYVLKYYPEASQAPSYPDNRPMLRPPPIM
Experiment: biochemical
Type: binding
Experimental readout: ΔTm Average (°C)
Note: unit °C is implicit; provide only the numeric part.

Compound | System tested | ΔTm Average [°C]
CCc1cc(Nc2nccc(-c3c(-c4ccc(OC)c(C(=O)Nc5c(F)cccc5F)c4)nc4ccccn34)n2)c(OC)cc1N1CCC(N2CCN(S(C)(=O)=O)CC2)CC1 [GSK1904529A] | LmxCLK1 (Leishmania mexicana) | 0.2

Recorded ΔTm Average for OCCn1cc(-c2cnc3nnn(Cc4ccc5ncccc5c4)c3n2)cn1 , please?
0.2

Same lookup for FC(F)(F)c1ccc(/C=C/c2nc(COc3ccc(CCCCn4ccnn4)cc3)co2)cc1 , please.
0.2

Same lookup for CC(C)(C)n1nc(-c2ccc(Cl)cc2)c2c(N)ncnc21 , please.
0

Same lookup for Cc1ccc(-c2nn(C(C)(C)C)c3ncnc(N)c23)cc1 , please.
0

---

Readings of ΔTm at 10 µM for the listed compounds
Molecular target: LmxCLK1 (Leishmania mexicana, UniProt E9AMP2)
Assay: biochemical
Assay type: binding
Conditions: read-out: ΔTm Run 2
Note: unit °C is implicit; provide only the numeric part.

Compound | Experimental readout | Data value
Nc1nc(N)c(N=O)c(OCC2CCCCC2)n1 [NU6027] | ΔTm at 10 µM | -0.2
C=CC(=O)Nc1cccc(Sc2nc(Nc3ccc(N4CCN(C)CC4)cc3)ncc2Cl)c1 [WZ8040] | ΔTm at 10 µM | 15
O=C1Nc2ccccc2/C1=C1/Nc2ccccc2C1=O [Indirubin] | ΔTm at 10 µM | -0.1
C=CC(=O)Nc1cccc(Oc2nc(Nc3ccc(N4CCN(C)CC4)cc3)ncc2Cl)c1 [WZ3146] | ΔTm at 10 µM | 14.4

The record that follows has no ΔTm at 10 µM shown yet.
Recorded ΔTm at 10 µM for CN1CCN(C2CCN(C(=O)Nc3cc(Oc4ccc(NC(=O)C5(C(=O)Nc6ccc(F)cc6)CC5)c(F)c4)ccn3)CC2)CC1 [Golvatinib (E7050)] , please?
0.7

---

Biological target: LmxCLK1 (Leishmania mexicana)
Assay: biochemical
Assay type: binding
Settings: DSF, 10 µM compound, 2 µM LmxCLK1, Run 1
Readings of ΔTm Run 1 for the listed compounds
Note: unit °C is implicit; provide only the numeric part.

Compound | Experimental readout | Unit abbrev | Data value
C=CC(=O)N1CCC[C@@H](n2nc(-c3ccc(Oc4ccccc4)cc3)c3c(N)ncnc32)C1 | ΔTm Run 1 | °C | 0.2

Recorded ΔTm Run 1 for C=CC(=O)Nc1ccc2ncnc(Nc3cccc(Br)c3)c2c1 , please?
0.3

Same lookup for NCC(=O)Nc1ccc(-n2nc(C(F)(F)F)cc2-c2ccc3c(ccc4ccccc43)c2)cc1 , please.
-0.1

Same lookup for COc1cc2/c(=N/c3ccc(Br)cc3F)nc[nH]c2cc1OCC1CCN(C)CC1 [Vandetanib (ZD6474)] , please.
0.0

Same lookup for NC(=O)Nc1sc(-c2ccc(F)cc2)cc1C(N)=O , please.
0.1

---

Molecular target: LmxCLK1 (Leishmania mexicana)
Assay: biochemical
Assay type: binding
Experimental readout: ΔTm Average
Number only, no unit.

Compound | ΔTm Average
CNc1nc(Nc2cnn([C@H]3CCN(C4COC4)C[C@@H]3F)c2Cl)ncc1C(F)(F)F [GNE-9605] | -0.4
COc1ccc(N(C(=O)Oc2c(C)cccc2C)c2ccnc(Nc3ccc(N4CCN(C)CC4)cc3)n2)c(OC)c1 [WH-4-023] | -0.3
C[C@@H]1COCCN1c1cc(C2(S(C)(=O)=O)CC2)nc(-c2cccc3[nH]ccc23)n1 [AZ20] | -0.3
CN(C)CCSSCCNC(=O)C1CCN(C(=O)CSc2ccc(Cl)cc2)CC1 [6H05] | -0.1
Nc1nc(N)c2nc(-c3cccc(O)c3)cnc2n1 [TG100713] | -0.1

The record that follows has no ΔTm Average shown yet.
Recorded ΔTm Average for NC(=O)c1cccc(-c2cc(Nc3ccc(OC(F)(F)F)cc3)ncn2)c1 [GNF-2] , please?
-0.2

---

Target: LmxCLK1 (Leishmania mexicana, UniProt E9AMP2)
Sequence (E9AMP2 1-422): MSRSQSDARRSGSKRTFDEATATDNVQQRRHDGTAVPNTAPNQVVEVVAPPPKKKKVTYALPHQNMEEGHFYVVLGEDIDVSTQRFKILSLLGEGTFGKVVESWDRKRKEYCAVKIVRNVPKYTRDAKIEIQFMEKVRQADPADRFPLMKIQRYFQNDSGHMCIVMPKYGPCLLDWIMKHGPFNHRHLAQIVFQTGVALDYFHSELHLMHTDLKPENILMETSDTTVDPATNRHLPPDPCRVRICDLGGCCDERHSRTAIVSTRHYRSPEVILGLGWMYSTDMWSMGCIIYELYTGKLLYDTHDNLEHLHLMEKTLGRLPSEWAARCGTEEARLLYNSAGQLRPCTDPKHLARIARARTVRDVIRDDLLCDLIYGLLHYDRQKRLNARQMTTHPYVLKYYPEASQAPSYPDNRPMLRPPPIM
Experiment: biochemical
Assay type: binding
Settings: DSF, 10 µM compound, 2 µM LmxCLK1, Run 2; read-out: ΔTm Run 2
In plain terms, low ΔTm at 10 µM, meaning strictly below -0.1 °C, gives true (1), and everything else gives false (0).

Please review the following examples before continuing.
Molecule | System tested | Cat
O=C(Nc1nc2cccc(-c3ccc(CN4CCS(=O)(=O)CC4)cc3)n2n1)C1CC1 | LmxCLK1 (Leishmania mexicana, UniProt E9AMP2) | true (1)
CNc1nc(-c2ccc3c(N)n[nH]c3c2)cc(N2C[C@@H](C(=O)NC3CCCCC3)CC[C@H]2C)n1 | LmxCLK1 (Leishmania mexicana, UniProt E9AMP2) | true (1)
CC(C)(O)CC(=O)NCCn1ccc2ncnc(Nc3ccc(Oc4cccc(C(F)(F)F)c4)c(Cl)c3)c21 | LmxCLK1 (Leishmania mexicana, UniProt E9AMP2) | true (1)
Cn1cc(-c2ccc3nnc(Sc4ccc5ncccc5c4)n3n2)cn1 | LmxCLK1 (Leishmania mexicana, UniProt E9AMP2) | true (1)
C[C@H]1[C@H](C)CC[C@]2(C(=O)O)CC[C@]3(C)C(=CC[C@@H]4[C@@]5(C)C[C@@H](O)[C@H](O)[C@@](C)(CO)[C@@H]5CC[C@]43C)[C@H]12 | LmxCLK1 (Leishmania mexicana, UniProt E9AMP2) | false (0)
CCn1c(-c2nonc2N)nc2c(C#CC(C)(C)O)ncc(OC[C@H]3CCCNC3)c21 | LmxCLK1 (Leishmania mexicana, UniProt E9AMP2) | true (1)
Cn1c(=O)c(F)c(Nc2ccc(I)cc2F)c2c(=O)n(C[C@@H](O)CO)cnc21 | LmxCLK1 (Leishmania mexicana, UniProt E9AMP2) | true (1)
O=C(Nc1ccc(-c2ccnc(Nc3ccc(N4CCOCC4)cc3)n2)cc1)C1CCCN1 (stereo not drawn) | LmxCLK1 (Leishmania mexicana, UniProt E9AMP2) | false (0)
O=C(NC1CCNCC1)c1[nH]ncc1NC(=O)c1c(Cl)cccc1Cl | LmxCLK1 (Leishmania mexicana, UniProt E9AMP2) | false (0)
O=C(O)c1ccc(-c2c[nH]c3ncc(-c4ccccc4)cc23)cc1C1CCCC1 | LmxCLK1 (Leishmania mexicana, UniProt E9AMP2) | true (1)

Given the entry CC(C)(C)c1cc(/C=C(\C#N)C(N)=S)cc(C(C)(C)C)c1O , would its reported ΔTm at 10 µM be below -0.1 °C?
true (1)

Same lookup for O=c1ncn2nc(Sc3ccc(F)cc3F)ccc2c1-c1c(Cl)cccc1Cl , please.
false (0)

Same lookup for CC(=O)Nc1cccc(-n2c(=O)n(C3CC3)c(=O)c3c(Nc4ccc(I)cc4F)n(C)c(=O)c(C)c32)c1 , please.
true (1)

Same lookup for Oc1c2ccccc2c2c3c(cccc13)N=N2 , please.
true (1)

Same lookup for O=C1c2ccc(Nc3ccc(F)cc3F)cc2CCc2ccc(OC[C@H](O)CO)cc21 [Skepinone-L] , please.
false (0)

Same lookup for CC(C)(C)NS(=O)(=O)c1cncc(-c2cc(F)c3nc(N)nn3c2)c1 , please.
true (1)

Same lookup for Cn1cnc(N)c2ncnc1-2 , please.
false (0)

Same lookup for CNC(=O)c1ccccc1Sc1ccc2c(/C=C/c3ccccn3)n[nH]c2c1 , please.
false (0)

Same lookup for COc1ccc(Cl)c(Nc2nc3ccccc3nc2NS(=O)(=O)c2cccc(NC(=O)C(C)(C)N)c2)c1 , please.
false (0)

Same lookup for O=C1NC(=O)/C(=C/c2ccc3nccc(-c4ccncc4)c3c2)S1 , please.
true (1)
